Experiment description: Approximate solubility screen of Compound I in different solvents
Type: physicochemical
Experimental parameters: organic solvent or mixture, thermodynamic from solid; IPA; 1.2 mg, 5.75 mL, heating to 55° C.
Parameter measured: solubility

Briefly, solubility measured for CCS(=O)(=O)c1cccc(-c2cc(C(=O)NC3CCN(C)CC3)c(C)c3[nH]c4ncc(C)cc4c23)c1 [Compound I] : < 330 µg/mL

---

Experiment description: Approximate solubility screen of Compound I in different solvents
Format: physicochemical
Experimental parameters: organic solvent or mixture, thermodynamic from solid; MEK; 1.9 mg, 5.75 mL, heating to 55° C.
Parameter measured: solubility

# solubility of CCS(=O)(=O)c1cccc(-c2cc(C(=O)NC3CCN(C)CC3)c(C)c3[nH]c4ncc(C)cc4c23)c1 [Compound I] = < 330 µg/mL
